Biological target: melatonin receptor
Assay: Action of inhibiting 2-[^125 I]iodomelatonin binding
Settings: forebrain membranes of 7-day-old chickens; 80 pM 2-[^125 I]iodomelatonin; 90 minutes at 25° C., pH 7.7; read-out: IC50, inhibition of 2-[^125 I]iodomelatonin binding
measured_attribute: pIC50
As a rule, pIC50 stands for the negative log10 of the concentration, concentration in M.

Return reported pIC50. Input molecule: COc1ccc2c(c1)C(CCNC(=O)C(F)(F)F)=C(c1ccccc1)C2
10.06
